Where these numbers come from: the RNAGym collection of RNA variant scans (doi:10.1093/nar/gkz1192)

B1: CPEB3 Ribozyme (parent)
chain: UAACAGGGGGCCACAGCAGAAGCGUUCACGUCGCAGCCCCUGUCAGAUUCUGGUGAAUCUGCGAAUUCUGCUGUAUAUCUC

variants of: B1; assay: self-cleavage, relative activity (ratio to wild type); higher = more cleavage; in vitro, sequencing
Readings of self-cleavage for the listed variants
Observation Type: self-cleavage

      changes  assay_result
 0  G10A C17G           0.3
 1   G9A U41G          0.26
 2   A5C U43C          0.57
 3  A45U A77G          0.52
 4   A3C U58A           0.5
 5   G7C C32U          0.12
 6  A13G A56G          0.73
 7   G7A U60A          0.37
 8  A13U U72A          0.77
 9  A13G G33C          0.17
10  U25A G42U          0.28
11  C23U A64G          0.26
12  U43C C62A          0.31
13  A18C U41C          0.34
14  G30A U41C          0.22
15  C17U C68U          0.51
16   G6A U25G          0.47
17  U41A G42U          0.27
18   G6A A64G          0.27
19  A15U C79A          1.03
20  C40A U41C          0.36
21   U1C U72G             1
